Tgt: Fuc(a1-2)Gal(b1-4)GlcNAc6S
Procedure Summary: glycan array binding signal (z-score within array); higher = stronger binding
Settings: glycan notation: IUPAC condensed, linker removed
The entries come from a sample that favours the strongest signals as a whole.
Outcome Measure: glycan array binding signal (z-score)

CBP21 (Serratia marcescens), O83009 (protein) MNKTSRTLLSLGLLSAAMFGVSQQANAHGYVESPASRAYQCKLQLNTQCGSVQYEPQSVEGLKGFPQAGPADGHIASADKSTFFELDQQTPTRWNKLNLKTGPNSFTWKLTARHSTTSWRYFITKPNWDASQPLTRASFDLTPFCQFNDGGAIPAAQVTHQCNIPADRSGSHVILAVWDIADTANAFYQAIDVNLSK = -1.02

Moving on to another binder below.
Return glycan array binding signal (z-score) (reported value) for this binder: CIH1 (Colletotrichum higginsianum) (protein) LPQATPTTPTPTSASAAATISATSSPTCSPGPVIDYTVVSGDTLTIISQRFSSGICNIADASGITNPNFLSLGQVLQVPTYVCTPDNTSCLAKEGSDTCVEGGPATHTIVAGDTFFLVAQSLGLDVNALLAANEGVDPLLLQIGDVINIPVC
0.014
